- Tested on: fibroblastes dermiques humains normaux
- experiment: Synthesis of sulfated glycosaminoglycans (radioactive label incorporation) in fibroblast cultures
- Type: cell-based
- testContext: Fibroblast; fibroblasts; second experiment; 1 mM; control = 100; n=2; read-out: % (synthèse des glycosaminoglycanes par rapport au témoin)
Threshold rule: activity at 1000 µM greater than or equal to 400% is class 1; below that, class 0.

INSERT INTO assay_data (compound, classname) VALUES
  ('CC(N)C[C@@H]1OC[C@@H](O)[C@H](O)[C@H]1O (stereo partly drawn) [1-[2-amino-propyl]-C-β-D-xylopyranose]', 'class 0'),
  ('CC(C[C@@H]1OC[C@@H](O)[C@H](O)[C@H]1O)NCCCO (some centres unmarked)', 'class 0'),
  ('CCCNC(C)C[C@@H]1OC[C@@H](O)[C@H](O)[C@H]1O (some centres unmarked) [Composé de l''exemple 11]', 'class 1'),
  ('CCCCCCNC(C)C[C@@H]1OC[C@@H](O)[C@H](O)[C@H]1O (some centres unmarked) [Composé de l''exemple 10]', 'class 1');

Shift focus to the following entry.
-- ask Exam item: decide whether the reported activity at 1000 µM for CNC(C)C[C@@H]1OC[C@@H](O)[C@H](O)[C@H]1O (some centres unmarked) is at least 400%.
-- reply class 0

The reported measurements were obtained from patent EP2373670B1.
